- Tested on: SMN2-linked luciferase-reporter gene construct
- Test details: SMN Splice Reporter Assay (SMN2-linked luciferase reporter)
- Assay type: cell-based
- Assay setup: fold-increase of luciferase over baseline reading of transformed cells without any test compound
Listing of recorded Fold Increase by entry.
Measurement name: Fold Increase

>>> result("Cc1ccc(N2Cc3cc4c(cc3C2=O)OCCO4)cn1")
1.364
>>> result("Cn1ccc2ccc(N3Cc4ccc(OC(F)F)cc4C3=O)cc21")
1.709
>>> result("COc1ccc2c(c1)C(=O)N(c1ccc3cn[nH]c3c1)C2")
1.412
>>> result("COc1ccc2c(c1)C(=O)N(c1ccc3ncccc3c1)C2")
1.713
>>> result("Cc1cc2cc(N3Cc4ccc(Cl)cc4C3=O)ccc2n1C")
1.481
>>> result("COc1ccc(-c2ccc3c(c2)C(=O)N(c2ccc4ccn(C)c4c2)C3)cc1")
1.091
>>> result("Cn1ccc2ccc(N3Cc4ccc(Br)cc4C3=O)cc21")
1.519
>>> result("COc1ccc2c(c1)C(=O)N(c1ccc3c(c1)cc(CN(C)C)n3C)C2")
1.148
>>> result("COc1ccc2c(c1)C(=O)N(c1ccc3[nH]ccc3n1)C2")
1.24

---

Listing of recorded pEC50 by entry.
- System: SMN2-linked luciferase-reporter gene construct
- Test details: SMN Splice Reporter Assay (SMN2-linked luciferase reporter)
- Assay type: cell-based
- Assay setup: cervical carcinoma cell lines, SMN2 splice luciferase reporter
pEC50: −log10 of the molar value.
Measurement name: pEC50

>>> result("C/C=C(/C)c1ccc2c(c1)C(=O)N(c1ccc3c(ccn3C)c1)C2")
7.12
>>> result("COc1ccc2c(c1)CN(c1ccc3c(ccn3C)c1)C2")
6.23
>>> result("Cc1ccc(N2Cc3cc4c(cc3C2=O)OCCO4)cn1")
6.15
>>> result("CCCOc1ccc2c(c1)C(=O)N(c1ccc3c(c1)cc(C)n3C)C2")
6.84
>>> result("Cc1ccc2c(c1)CN(c1ccc3ccn(C)c3c1)C2=O")
7.27
>>> result("CCCc1ccc2c(c1)C(=O)N(c1ccc3ccn(C)c3c1)C2")
6.82
>>> result("COc1ccc2c(c1)C(=O)N(c1ccc3[nH]c(=O)[nH]c3c1)C2")
6.01
>>> result("O=C1c2cc3c(cc2CN1c1ccc2ccoc2c1)OCCO3")
8.22
>>> result("COc1ccc2c(c1)C(=O)N(c1ccc3occc3c1)C2")
7.23

---

Listing of recorded Fold Increase by entry.
- Tested on: SMN2-linked luciferase-reporter gene construct
- Test details: SMN Splice Reporter Assay (SMN2-linked luciferase reporter)
- Type: cell-based
- Assay setup: fold-increase of luciferase over baseline reading of transformed cells without any test compound
Measurement name: Fold Increase

>>> result("COc1ccc2c(c1)C(=O)N(c1ccc3nccc(OC)c3c1)C2")
1.227
>>> result("Cn1ccc2cc(N3Cc4ccc(N5CCOCC5)cc4C3=O)ccc21")
1.256
>>> result("Cc1cc2cc(N3Cc4ccc(OC5CCCC5)cc4C3=O)ccc2n1C")
1.2
>>> result("COc1ccc2c(c1)C(=O)N(c1ccc3c(Cl)ccnc3c1)C2")
1.262
>>> result("COc1ccc2c(c1)C(=O)N(c1ccc3ccc(OC)nc3c1)C2")
1.429
>>> result("Cn1ccc2ccc(N3Cc4ccc(NS(C)(=O)=O)cc4C3=O)cc21")
1.061
>>> result("COCn1ccc2ccc(N3Cc4ccc(OC)cc4C3=O)cc21")
1.311
>>> result("COc1ccc2c(c1)C(=O)N(c1cnc3[nH]ccc3c1)C2")
1.246
>>> result("COc1ccc2c(c1)C(=O)N(c1ccc3sc(C)nc3c1)C2")
1.322
>>> result("COc1ccc2c(c1)C(=O)N(c1ccc3cccnc3c1)C2")
1.401
>>> result("Cn1ccc2ccc(N3Cc4ccc(-c5cncnc5)cc4C3=O)cc21")
1.333
>>> result("CCOc1ccc2c(c1)C(=O)N(c1ccc3c(c1)cc(C)n3C)C2")
1.316
>>> result("CCCc1ccc2c(c1)C(=O)N(c1ccc3sccc3c1)C2")
1.547
>>> result("COCn1ccc2cc(N3Cc4ccc(OC)cc4C3=O)ccc21")
1.42
>>> result("COc1ccc2c(c1)C(=O)N(c1ccc3ccc(N(C)C)nc3c1)C2")
1.202
>>> result("CC(=O)Nc1ccc2c(c1)CN(c1ccc3c(ccn3C)c1)C2=O")
1.201
>>> result("CC(=O)Nc1cccc2c1CN(c1ccc3ccn(C)c3c1)C2=O")
1.087
>>> result("O=C1c2ccccc2CN1c1ccc(Br)cn1")
1.264
>>> result("CC(C)n1ccc2cc(N3Cc4ccc(N(C)C)cc4C3=O)ccc21")
1.285
>>> result("COc1ccc2c(c1)C(=O)N(c1ccc(Br)cn1)C2")
1.358
>>> result("COc1ccc2c(c1)C(=O)N(c1ccc3nc(N(C)C)ncc3c1)C2")
1.459
>>> result("Cn1ccc2cc(N3Cc4ccc(C(F)(F)F)cc4C3=O)ccc21")
1.406
>>> result("Cn1ccc2ccc(N3Cc4cccc(N)c4C3=O)cc21")
1.745
>>> result("CCCc1ccc2c(c1)C(=O)N(c1ccc3c(ccn3C(C)C)c1)C2")
1.037
>>> result("COc1ccc2c(c1)C(=O)N(c1ccc3ccn(C)c3c1)C2")
1.74
>>> result("COc1ccc2c(c1)CN(c1ccc3sccc3c1)C2=O")
1.778
>>> result("CC(=O)Nc1cccc2c1C(=O)N(c1ccc3c(ccn3C)c1)C2")
1.581
>>> result("COc1ccc2c(c1)C(=O)N(c1ccc3nc[nH]c3c1)C2")
1.313
>>> result("COc1ccc2c(c1)C(=O)N(c1ccc3c(N(C)C)ccnc3c1)C2 [Example 123713]")
1.072
>>> result("CCCc1ccc2c(c1)C(=O)N(c1ccc3ccn(C)c3c1)C2")
1.692
>>> result("COc1ccc2c(c1)C(=O)N(c1ccc3c(c1)ncn3C)C2")
1.362
>>> result("Cn1ccc2ccc(N3Cc4ccc(N)cc4C3=O)cc21")
1.638
>>> result("CCOc1ccc2c(c1)C(=O)N(c1ccc3cc(C)n(C)c3c1)C2")
1.305
>>> result("COc1ccc2c(c1)C(=O)N(c1ccc3c(c1)cc(-c1ccccc1)n3C)C2")
1.378
>>> result("COc1ccc2c(c1)C(=O)N(c1cc3cc[nH]c3cn1)C2")
1.172
>>> result("COc1ccc2c(c1)C(=O)N(c1ccc3c(c1)cc(C)n3C(C)C)C2")
1.863
>>> result("Cn1ccc2ccc(N3Cc4cccc(Br)c4C3=O)cc21")
1.788

---

- Test system: SMN2-linked luciferase-reporter gene construct
- Test details: SMN Splice Reporter Assay (SMN2-linked luciferase reporter)
- Type: cell-based
- Assay setup: cervical carcinoma cell lines, SMN2 splice luciferase reporter
pEC50: −log10 of the molar value.
Measurement name: pEC50

>>> result("CCc1ccc2c(c1)C(=O)N(c1ccc3sccc3c1)C2")
7.24
>>> result("CN(C)c1ccc2c(c1)C(=O)N(c1ccc3ncccc3c1)C2")
8.05
>>> result("COc1ccc2c(c1)C(=O)N(c1ccc3c(c1)cc(C)n3C(C)C)C2")
5.58
>>> result("COc1ccc2c(c1)C(=O)N(c1ccc3c(ccn3C(C)C)c1)C2")
7.15
>>> result("Cc1ccc2c(c1)C(=O)N(c1ccc3c(c1)cc(C)n3C)C2")
7.28

---

- System: SMN2-linked luciferase-reporter gene construct
- Test details: SMN Splice Reporter Assay (SMN2-linked luciferase reporter)
- Assay type: cell-based
- Assay setup: fold-increase of luciferase over baseline reading of transformed cells without any test compound
Listing of recorded Fold Increase by entry.
Measurement name: Fold Increase

>>> result("CCCc1ccc2c(c1)C(=O)N(c1ccc3c(c1)cc(C)n3C)C2")
1.407
>>> result("Cc1cc2cc(N3Cc4ccc(Br)cc4C3=O)ccc2n1C")
1.551
>>> result("COc1ccc2c(c1)C(=O)N(c1ccc3c(cnn3C)c1)C2")
1.312
>>> result("CC(=O)Nc1ccc2c(c1)C(=O)N(c1ccc3c(c1)cc(C)n3C)C2")
1.494
>>> result("O=C1c2cc(Br)ccc2CN1c1ccc2ccsc2c1")
1.383
>>> result("CC(C)n1ccc2cc(N3Cc4ccc(Br)cc4C3=O)ccc21")
1.446
>>> result("CC(C)C(=O)Nc1ccc2c(c1)C(=O)N(c1ccc3ccn(C)c3c1)C2")
2.069
>>> result("CC(C)(C)OC(=O)Cc1ccc(N2Cc3ccccc3C2=O)nc1")
1.324
>>> result("CCCOc1ccc2c(c1)C(=O)N(c1ccc3cc(C)n(C)c3c1)C2")
1.221

---

- Test system: SMN2-linked luciferase-reporter gene construct
- Test details: SMN Splice Reporter Assay (SMN2-linked luciferase reporter)
- Format: cell-based
- Assay setup: fold-increase of luciferase over baseline reading of transformed cells without any test compound
Listing of recorded Fold Increase by entry.
Measurement name: Fold Increase

>>> result("COc1ccc2c(c1)C(=O)N(c1ccc3c(OC)ccnc3c1)C2")
1.38
>>> result("COc1ccc2c(c1)C(=O)N(c1ccc3cc[nH]c3c1)C2")
1.716
>>> result("COc1ccc(-c2ccc3c(c2)C(=O)N(c2ccc4c(ccn4C)c2)C3)cc1")
1.148
>>> result("COc1ccc2c(c1)C(=O)N(c1ccc3c(c1)N(C)CCO3)C2")
1.495
>>> result("COc1ccc2c(c1)C(=O)N(c1ccc3nc(C)ncc3c1)C2")
1.489
>>> result("Cc1cc2cc(N3Cc4ccc(Br)cc4C3=O)ccc2n1C(C)C")
1.454
>>> result("CC(=O)Nc1cccc2c1C(=O)N(c1ccc3ccn(C)c3c1)C2")
1.496
>>> result("Cn1ccc2ccc(N3Cc4ccc(Cl)cc4C3=O)cc21")
1.482
>>> result("COc1ccc2c(c1)CN(c1ccc3ccn(C)c3c1)C2=O")
1.83

The values you see were collected from patent US20100267712A1.
